Ref: ChEMBL document CHEMBL5291721

Hi there, I'd appreciate the recorded AC50 for every entry that follows.
test_target: Sodium-dependent serotonin transporter (Homo sapiens, UniProt P31645); further: assay procedure not described here
Sequence (P31645 whole entry): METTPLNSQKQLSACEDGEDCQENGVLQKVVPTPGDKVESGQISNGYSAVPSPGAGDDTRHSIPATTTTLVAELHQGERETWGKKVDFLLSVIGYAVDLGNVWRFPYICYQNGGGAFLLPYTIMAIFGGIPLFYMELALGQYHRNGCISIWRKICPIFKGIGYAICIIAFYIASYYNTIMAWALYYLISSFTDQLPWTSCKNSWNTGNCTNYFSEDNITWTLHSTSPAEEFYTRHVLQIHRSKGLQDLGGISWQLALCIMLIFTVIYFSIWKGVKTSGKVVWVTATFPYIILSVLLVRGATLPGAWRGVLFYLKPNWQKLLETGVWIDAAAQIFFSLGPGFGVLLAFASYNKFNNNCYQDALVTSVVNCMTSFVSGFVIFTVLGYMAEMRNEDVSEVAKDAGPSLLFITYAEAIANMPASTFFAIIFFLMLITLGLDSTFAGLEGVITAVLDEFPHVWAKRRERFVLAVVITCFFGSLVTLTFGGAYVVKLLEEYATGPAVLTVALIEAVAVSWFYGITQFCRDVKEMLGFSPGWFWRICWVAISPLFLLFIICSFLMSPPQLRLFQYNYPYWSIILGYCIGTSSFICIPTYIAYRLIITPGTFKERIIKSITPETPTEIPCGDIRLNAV

Param item = Cc1ccc(S(=O)(=O)NC(=O)N[C@H]2[C@H]3CC[C@@](C)([C@H]2O)C3(C)C)cc1 [GLIBORNURIDE] ; retrieve measured AC50. > 30 µM

Which value of AC50 has been reported for C[C@@H](Cc1ccccc1)N(C)Cc1ccccc1 in the records? 0.075 µM

Item Oc1cc(O)c2c(c1)O[C@H](c1ccc(O)c(O)c1)[C@@H](O)C2 has what recorded AC50? > 30 µM

Sample CC(=O)OCC1=C(C(=O)O)N2C(=O)[C@@H](NC(=O)Cc3cccs3)[C@H]2SC1 — what was its AC50? > 30 µM

May I ask what AC50 has been recorded for CN(C)CCOC(=O)C(c1ccccc1)C1(O)CCCC1 (configuration not stated) [CYCLOPENTOLATE] ? > 30 µM

Quick one: AC50 for Nc1c2c(nc3ccccc13)CCCC2O (configuration not stated) ? > 30 µM

So what's the measured AC50 for this one? COC(=O)[C@H]1[C@H]2C[C@@H]3c4[nH]c5ccccc5c4CCN3C[C@H]2C[C@@H](OC(=O)c2cc(OC)c(OC)c(OC)c2)[C@@H]1OC > 10 µM

Quick check: AC50 of CCOc1cc2ncc(C#N)c(Nc3ccc(OCc4ccccn4)c(Cl)c3)c2cc1NC(=O)/C=C/CN(C)C ? > 10 µM

Look up AC50 for this molecule: CCCO[C@H]1[C@@H]([C@@H](COCc2ccc(Cl)cc2)OCc2ccc(Cl)cc2)OC(OCC)[C@@H]1O (some centres not stated) [CLOBENOSIDE] > 30 µM

Looking for the measured AC50 of C[C@H](Cn1cnc2c(N)ncnc21)OCP(=O)(O)O [TENOFOVIR ANHYDROUS] , can you help? > 30 µM

May I ask what AC50 has been recorded for C[C@]12C=CC(=O)C=C1C(Cl)=C[C@@H]1[C@@H]2[C@@H](O)C[C@@]2(C)[C@H]1CC[C@]2(O)C(=O)CO ? > 30 µM

Record request: AC50 value, item CCCCOC(=O)C(=O)Nc1cccc(-c2nnn[nH]2)c1 > 30 µM

* * *

Could you please report measured AC50 for the items listed next?
test_target: Alpha-1A adrenergic receptor (Homo sapiens); further: assay procedure not described here
Sequence (P35348 whole entry): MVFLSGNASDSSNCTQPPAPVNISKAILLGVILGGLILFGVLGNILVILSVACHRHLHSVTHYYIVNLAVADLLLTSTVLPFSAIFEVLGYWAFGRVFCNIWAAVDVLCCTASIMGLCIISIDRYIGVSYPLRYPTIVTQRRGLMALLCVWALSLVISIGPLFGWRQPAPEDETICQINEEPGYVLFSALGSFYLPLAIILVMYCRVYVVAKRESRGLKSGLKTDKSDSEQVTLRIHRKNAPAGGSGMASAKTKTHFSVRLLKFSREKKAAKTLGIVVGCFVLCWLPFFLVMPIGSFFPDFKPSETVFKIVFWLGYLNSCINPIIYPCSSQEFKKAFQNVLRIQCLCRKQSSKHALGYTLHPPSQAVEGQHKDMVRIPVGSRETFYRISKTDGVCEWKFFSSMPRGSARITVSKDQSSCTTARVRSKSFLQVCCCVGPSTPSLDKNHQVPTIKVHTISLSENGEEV
Assay type: functional, cell-based

I would be grateful if you could share the reported AC50 for CC(C)N1CCN(c2ccc(OCC3COC(Cn4cncn4)(c4ccc(Cl)cc4Cl)O3)cc2)CC1 (stereo unspecified) [TERCONAZOLE] . 16 µM

Name the recorded AC50 for Cn1c(CCCC(=O)O)nc2cc(N(CCCl)CCCl)ccc21 [BENDAMUSTINE] . > 30 µM

Fill in: AC50 of COC(=O)N[C@H](C(=O)N1CC2(CC2)C[C@H]1c1ncc(-c2ccc3c(c2)C(F)(F)c2cc(-c4ccc5nc([C@@H]6[C@H]7CC[C@H](C7)N6C(=O)[C@@H](NC(=O)OC)C(C)C)[nH]c5c4)ccc2-3)[nH]1)C(C)C is ___ > 30 µM

Report AC50 for Cc1ccc(Cl)c(Nc2ccccc2C(=O)O)c1Cl [MECLOFENAMIC ACID] please. > 30 µM

Quick one: AC50 of N#Cc1ccnc(N2C(=O)CC[C@H]2C(=O)N(c2cncc(F)c2)[C@H](C(=O)NC2CC(F)(F)C2)c2ccccc2Cl)c1 [IVOSIDENIB] ? > 30 µM

// lookup AC50 for CN1CCN(C(c2ccccc2)c2ccc(Cl)cc2)CC1 (stereo unspecified) [CHLORCYCLIZINE] 4.86 µM
